Conditions: 308.15 K; 101 kPa; Liquid; Frequency=2 MHz; Sing-around technique in a fixed-path interferometer
± gives the expanded uncertainty stated by the source.
MEASURED_PROPERTY: speed of sound

• C1=CCCCC1 = 1224.8 ± 0.8 m/s
• NC1CCCCC1 = 1379.2 ± 0.9 m/s
• OC1CCCCC1 = 1419.6 ± 0.9 m/s
• CN1CCCC1=O = 1526.4 ± 0.9 m/s

* * *

Details: 303.15 K; 101 kPa; Liquid; Frequency=2 MHz; Sing-around technique in a fixed-path interferometer
MEASURED_PROPERTY: speed of sound (m/s)

• CN1CCCC1=O [N-methylpyrrolidone] = 1552.8
• C1=CCCCC1 [cyclohexene] = 1252.1
• NC1CCCCC1 [cyclohexylamine] = 1397.8
• OC1CCCCC1 [cyclohexanol] = 1443.2
